tested-on: Glutaminase kidney isoform, mitochondrial (Homo sapiens, UniProt O94925)
Sequence (O94925 whole entry, canonical isoform): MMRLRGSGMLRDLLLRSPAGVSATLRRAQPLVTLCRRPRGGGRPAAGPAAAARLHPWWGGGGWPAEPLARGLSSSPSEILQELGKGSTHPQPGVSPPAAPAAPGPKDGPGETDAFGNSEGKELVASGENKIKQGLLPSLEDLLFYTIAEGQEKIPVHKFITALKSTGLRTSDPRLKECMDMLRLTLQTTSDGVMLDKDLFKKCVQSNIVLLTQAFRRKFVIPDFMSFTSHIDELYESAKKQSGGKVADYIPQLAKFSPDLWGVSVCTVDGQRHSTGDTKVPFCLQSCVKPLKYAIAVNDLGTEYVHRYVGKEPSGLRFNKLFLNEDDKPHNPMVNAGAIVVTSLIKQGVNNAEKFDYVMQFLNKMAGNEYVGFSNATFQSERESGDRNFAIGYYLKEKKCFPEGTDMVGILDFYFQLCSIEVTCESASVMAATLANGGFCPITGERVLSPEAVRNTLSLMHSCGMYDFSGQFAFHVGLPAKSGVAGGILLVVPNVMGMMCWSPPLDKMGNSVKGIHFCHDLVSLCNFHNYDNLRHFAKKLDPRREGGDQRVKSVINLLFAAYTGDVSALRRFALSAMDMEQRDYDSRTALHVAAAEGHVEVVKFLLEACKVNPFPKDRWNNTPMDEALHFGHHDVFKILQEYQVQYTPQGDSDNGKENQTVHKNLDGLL
test: Inhibition of GLS1 in human PC3 cells assessed as cellular glutamate depletion levels after 6 hrs by Glutamate Oxidase/ AmplexRed coupled assay
Type: cell-based, PC-3
reported-endpoint: IC50 (nM)
Entry rule: numbers only, all in nM.

Req: Fill: IC50 (Glutaminase kidney isoform, mitochondrial (Homo sapiens, UniProt O94925)) for this molecule COc1cc([C@@H](OC)C(=O)Nc2nnc(N[C@@H]3CCN(c4cncnn4)C3)s2)ccc1F
Resp: 4.99

====

tested-on: Glutaminase kidney isoform, mitochondrial (Homo sapiens)
reported-endpoint: IC50

Req: Fill: IC50 (Glutaminase kidney isoform, mitochondrial (Homo sapiens)) for this compound COc1cc([C@@H](OC)C(=O)Nc2nnc(N[C@@H]3CCN(c4cncnn4)C3)s2)ccc1F
Resp: 70.7 nM
